Experiment description: APR_HepG2_CellLoss_24hr: Apredica 24-hour HepG2 Assay for Cell Loss (AID 2282908)
Test context: high-content imaging
Calls of active or inactive are those of the source. Rule for the calls: active = hit-call score of the fitted dose curve at least 0.9, where 1 is the maximum; inactive = score below 0.9.
Classes used: active, inactive

{"columns": ["Compound", "Class label"],
 "data": [
  ["O=S(=O)(O)C(F)(F)C(F)(F)C(F)(F)C(F)(F)C(F)(F)C(F)(F)C(F)(F)C(F)(F)F", "active"],
  ["CCCN(CCOc1c(Cl)cc(Cl)cc1Cl)C(=O)n1ccnc1", "active"],
  ["CC[C@H](C)[C@H]1O[C@]2(C=C[C@@H]1C)C[C@@H]1C[C@@H](C/C=C(\\C)[C@@H](O[C@H]3C[C@H](OC)[C@@H](O[C@H]4C[C@H](OC)[C@@H](O)[C@H](C)O4)[C@H](C)O3)[C@@H](C)/C=C/C=C3\\CO[C@@H]4[C@H](O)C(C)=C[C@@H](C(=O)O1)[C@]34O)O2 (tested in a mixture with another compound)", "active"],
  ["N#CN", "inactive"],
  ["CNC(=O)Oc1cccc(N=CN(C)C)c1", "active"],
  ["CCc1ccc(C(=O)NN(C(=O)c2cc(C)cc(C)c2)C(C)(C)C)cc1", "inactive"],
  ["O=S1OCC2C(CO1)C1(Cl)C(Cl)=C(Cl)C2(Cl)C1(Cl)Cl (stereo unspecified)", "inactive"],
  ["Cc1[nH]c(=O)n(C(C)(C)C)c(=O)c1Cl", "inactive"],
  ["CNC(=O)/C=C(\\C)OP(=O)(OC)OC", "inactive"],
  ["CC1(c2ccc(Oc3ccccc3)cc2)OC(=O)N(Nc2ccccc2)C1=O (stereo unspecified)", "active"],
  ["O=C(Nc1ccccc1)Nc1cnns1", "inactive"],
  ["CCCN(CCC)c1c([N+](=O)[O-])cc(C(F)(F)F)cc1[N+](=O)[O-]", "inactive"],
  ["Clc1ccccc1-c1nnc(-c2ccccc2Cl)nn1", "inactive"],
  ["CC(C)(C)C(O)C(Oc1ccc(Cl)cc1)n1cncn1 (stereo unspecified)", "inactive"],
  ["COC(=O)c1ccccc1S(=O)(=O)NC(=O)Nc1nc(C)nc(OC)n1", "inactive"],
  ["Cc1cc(C)nc(NC(=O)NS(=O)(=O)c2ccccc2C(=O)OC2COC2)n1", "inactive"],
  ["CC(C)OC(=O)Nc1cccc(Cl)c1", "inactive"],
  ["CC(C)(C)C(O)/C(=C\\c1ccc(Cl)cc1Cl)n1cncn1 (stereo unspecified)", "inactive"],
  ["CC(C)N(C(=O)COc1nnc(C(F)(F)F)s1)c1ccc(F)cc1", "active"],
  ["COC(=O)c1ccccc1S(=O)(=O)NC(=O)N(C)c1nc(C)nc(OC)n1", "inactive"],
  ["CN1CSC(=S)N(C)C1", "active"],
  ["CC1(C)C(C=C(Cl)Cl)C1C(=O)OC(C#N)c1ccc(F)c(Oc2ccccc2)c1 (stereo unspecified)", "inactive"],
  ["CCC(C)(C)C(=O)OC1=C(c2ccc(Cl)cc2Cl)C(=O)OC12CCCCC2", "active"],
  ["C[C@H]1[C@H](c2ccc(Cl)cc2)SC(=O)N1C(=O)NC1CCCCC1", "inactive"],
  ["CCOCN(C(=O)CCl)c1c(C)cccc1CC", "active"],
  ["ClC1C(Cl)C(Cl)C(Cl)C(Cl)C1Cl (stereo unspecified)", "inactive"]
]}

###

Read-out: Cytochrome P450 (CYP1A2), CYP1A2 (gene 1544)
Experiment description: LTEA_HepaRG_CYP1A2: Life Technologies and Expression Analysis (LTEA) Assay for Cytochrome P450 (CYP1A2) using HepaRG (AID 2283479);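 for AC50: TaqMan qRT-PCR transcript level normalized to ACTB GAPDH and POLR2A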
Test context: mRNA level, 48 h; actives raise or lower the signal
Calls of active or inactive are those of the source. The calls were made as follows: active = hit-call score of the fitted dose curve at least 0.9, where 1 is the maximum; inactive = score below 0.9.

{"columns": ["Molecule", "AC50"],
 "data": [
  ["Oc1ccc(Cl)cc1Cc1ccccc1", "inactive"],
  ["Cc1[nH]c(=O)n(C(C)(C)C)c(=O)c1Cl", "36.2 µM (active)"],
  ["COP(=S)(OC)Oc1ccc(SC)c(C)c1", "35 µM (active)"],
  ["O=C(O)COc1ccc(Cl)cc1Cl", "50 µM (active)"],
  ["O=C(Nc1ccccc1)Nc1cnns1", "68 µM (active)"],
  ["Clc1ccccc1-c1nnc(-c2ccccc2Cl)nn1", "17.3 µM (active)"],
  ["CC1(C)C(C=C(Cl)Cl)C1C(=O)OC(C#N)c1ccc(F)c(Oc2ccccc2)c1 (stereo not given)", "20.2 µM (active)"],
  ["CC(C)N(C(=O)COc1nnc(C(F)(F)F)s1)c1ccc(F)cc1", "inactive"],
  ["C#CCN1C(=O)COc2cc(F)c(N3C(=O)C4=C(CCCC4)C3=O)cc21", "inactive"],
  ["N#Cc1c(Cl)c(Cl)c(Cl)c(C#N)c1Cl", "13.7 µM (active)"]
]}

###

Read-out: Interferon-gamma inducible Protein 10 (IP10), CXCL10 (gene 3627)
Experiment description: BSK_hDFCGF_IP10: BioMAP Diversity Plus: hDFCGF Assay for Interferon-gamma inducible Protein 10 (IP10) Biomarker Activity (AID 2283053)
Test context: primary human foreskin fibroblasts; actives raise or lower the signal
The source made the active and inactive calls. Rule for the calls: active = hit-call score of the fitted dose curve at least 0.9, where 1 is the maximum; inactive = score below 0.9.

{"columns": ["Smiles input", "AC50"],
 "data": [
  ["COC(=O)c1ccccc1S(=O)(=O)NC(=O)N(C)c1nc(C)nc(OC)n1", "28.7 µM (active)"],
  ["OCCOc1ccccc1", "inactive"],
  ["COC(=O)c1ccccc1CS(=O)(=O)NC(=O)Nc1nc(OC)cc(OC)n1", "inactive"],
  ["CCCN(CCOc1c(Cl)cc(Cl)cc1Cl)C(=O)n1ccnc1", "30.7 µM (active)"],
  ["CCN(CC)C(=O)SCc1ccc(Cl)cc1", "inactive"],
  ["N#CN", "inactive"],
  ["COP(=O)(OC)OC=C(Cl)Cl", "inactive"]
]}

###

Read-out: matrix metalloproteinase-3 (MMP3), MMP3 (gene 4314)
Experiment description: LTEA_HepaRG_MMP3: Life Technologies and Expression Analysis (LTEA) Assay for matrix metalloproteinase-3 (MMP3) using HepaRG (AID 2283519)
Test context: mRNA level, 48 h; actives raise or lower the signal
Calls of active or inactive are those of the source. How the source made its calls: active means hit-call score of the fitted dose curve at least 0.9, where 1 is the maximum; inactive means score below 0.9.
Classes used: 1 (yes) for active, 0 (no) for inactive

{"columns": ["Compound", "Class label"],
 "data": [
  ["O=C(NC(=O)c1c(F)cccc1F)Nc1ccc(OC(F)(F)C(F)OC(F)(F)F)c(Cl)c1 (configuration not stated)", "0 (no)"],
  ["O=C1c2ccccc2C(=O)N1SC(Cl)(Cl)Cl", "0 (no)"],
  ["C#CCN1C(=O)COc2cc(F)c(N3C(=O)C4=C(CCCC4)C3=O)cc21", "0 (no)"],
  ["CNC(=O)Oc1cccc(N=CN(C)C)c1", "0 (no)"],
  ["CCOCN(C(=O)CCl)c1c(C)cccc1CC", "0 (no)"],
  ["ClC1C(Cl)C(Cl)C(Cl)C(Cl)C1Cl (configuration not stated)", "0 (no)"],
  ["CCC(C)(C)C(=O)OC1=C(c2ccc(Cl)cc2Cl)C(=O)OC12CCCCC2", "0 (no)"],
  ["COP(=S)(OC)Oc1ccc([N+](=O)[O-])cc1", "0 (no)"],
  ["COP(=O)(OC)OC=C(Cl)Cl", "0 (no)"],
  ["O=C(O)CCCOc1ccc(Cl)cc1Cl", "0 (no)"],
  ["CC[C@H](C)[C@H]1O[C@]2(C=C[C@@H]1C)C[C@@H]1C[C@@H](C/C=C(\\C)[C@@H](O[C@H]3C[C@H](OC)[C@@H](O[C@H]4C[C@H](OC)[C@@H](O)[C@H](C)O4)[C@H](C)O3)[C@@H](C)/C=C/C=C3\\CO[C@@H]4[C@H](O)C(C)=C[C@@H](C(=O)O1)[C@]34O)O2 (tested in a mixture with another compound)", "1 (yes)"],
  ["CC1(c2ccc(Oc3ccccc3)cc2)OC(=O)N(Nc2ccccc2)C1=O (configuration not stated)", "1 (yes)"],
  ["Oc1ccc(Cl)cc1Cc1ccccc1", "0 (no)"],
  ["O=S(=O)(O)C(F)(F)C(F)(F)C(F)(F)C(F)(F)C(F)(F)C(F)(F)C(F)(F)C(F)(F)F", "0 (no)"],
  ["COc1nn(CSP(=S)(OC)OC)c(=O)s1", "0 (no)"],
  ["N#Cc1c(Cl)c(Cl)c(Cl)c(C#N)c1Cl", "1 (yes)"],
  ["CCc1ccc(C(=O)NN(C(=O)c2cc(C)cc(C)c2)C(C)(C)C)cc1", "0 (no)"]
]}

###

Experiment description: BSK_SAg_PBMCCytotoxicity: PBMC Cytotoxicity Assessment in the BioMAP Diversity Plus: SAg Assay (AID 2283093);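 note: PBMC viability measured as Alamar Blue reduction fluorescence at 546/580 nm; fitted both ways against DMSO so a hit may be loss or gain of signal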
Test context: primary human HUVEC with PBMC
Activity calls are given as the source filed them. Rule for the calls: active = hit-call score of the fitted dose curve at least 0.9, where 1 is the maximum; inactive = score below 0.9.
Classes used: active, inactive

{"columns": ["Compound", "Class label"],
 "data": [
  ["OCCOc1ccccc1", "inactive"],
  ["CCC(C)(C)C(=O)OC1=C(c2ccc(Cl)cc2Cl)C(=O)OC12CCCCC2", "active"],
  ["COc1nn(CSP(=S)(OC)OC)c(=O)s1", "inactive"],
  ["O=[N+]([O-])/N=C1\\NCCN1Cc1ccc(Cl)nc1", "inactive"],
  ["O=S1OCC2C(CO1)C1(Cl)C(Cl)=C(Cl)C2(Cl)C1(Cl)Cl (stereo unspecified)", "active"],
  ["Clc1ccccc1-c1nnc(-c2ccccc2Cl)nn1", "inactive"]
]}
